- Tested on: HOP-62
- measurementDescription: NCI tumour cell line growth inhibition, 48 h
Active and inactive are the calls of the source. Rule as the data show it: active = GI50 up to about 1.1 µM and inactive = higher.
Possible outcomes: active, inactive

compound: S=C1CC(c2ccccc2)Sc2ccc(Cl)cc2N1 (stereo unspecified)
targetOfAssay: HOP-62
classAssignment: inactive
--
compound: Cc1c(O)c(=O)ccn1CCc1ccc(O)cc1
targetOfAssay: HOP-62
classAssignment: inactive
--
compound: COc1ccc(CC[N+]2(C)COc3cc4oc(=O)cc(C)c4cc3C2)cc1OC (stereo unspecified)
targetOfAssay: HOP-62
classAssignment: inactive
--
compound: O=[N+]([O-])c1cc(Cl)ccc1S(=O)(=O)c1ccc(Cl)cc1[N+](=O)[O-]
targetOfAssay: HOP-62
classAssignment: inactive
--
compound: O=c1nc(N2CCNCC2)oc2cc(Cl)oc(=O)c12
targetOfAssay: HOP-62
classAssignment: inactive
--
compound: CCOC(=O)c1nc2ccc(C(F)(F)F)cc2nc1NCc1ccc(F)cc1
targetOfAssay: HOP-62
classAssignment: inactive
--
compound: Cc1ccc2c(c1)C(=O)/C(=C\c1ccc(Cl)cc1)CCS2(=O)=O
targetOfAssay: HOP-62
classAssignment: inactive
--
compound: CCOC(=O)C1=C(C)N(C2OC(COC(C)=O)C(OC(C)=O)C(OC(C)=O)C2OC(C)=O)C(=O)NC1c1ccccc1 (stereo unspecified)
targetOfAssay: HOP-62
classAssignment: inactive
--
compound: CCCCCCc1cc2cc(C(=O)Nc3cccc(C(F)(F)F)c3)c(=N)oc2cc1O
targetOfAssay: HOP-62
classAssignment: inactive
--
compound: COc1cc2cc[n+]3c(C)c4cc(OC)c(OC)cc4c([O-])c3c2cc1OC
targetOfAssay: HOP-62
classAssignment: inactive
--
compound: N#CC1(C#N)C(c2ccccc2)C=CC(c2ccc([N+](=O)[O-])cc2)C1(C#N)C#N (stereo unspecified)
targetOfAssay: HOP-62
classAssignment: inactive
--
compound: C[C@]12CCC(=O)C=C1CC[C@@H]1[C@@H]2CC[C@]2(C)C(=O)/C(=C/c3ccncc3)C[C@@H]12
targetOfAssay: HOP-62
classAssignment: inactive
--
compound: CN(C)CCNC(=O)c1ccc(Cl)c2cc3ccccc3nc12
targetOfAssay: HOP-62
classAssignment: active
--
compound: O=C1CCN2CCC(=O)c3c2c(cc2ccccc32)N1
targetOfAssay: HOP-62
classAssignment: inactive
--
compound: Cc1ccc(F)c2[nH]c(-c3ccccc3)cc(=O)c12
targetOfAssay: HOP-62
classAssignment: inactive
--
compound: O=C1CS(=O)(=O)C(c2cccc(Oc3ccccc3)c2)N1c1cccc(Cl)c1 (stereo unspecified)
targetOfAssay: HOP-62
classAssignment: inactive
--
compound: CC(=O)c1ccc(Oc2c3ccccc3nc3ccccc23)cc1
targetOfAssay: HOP-62
classAssignment: inactive
--
compound: COC(=O)C(Cc1ccccc1)NC(=O)CNC(=O)CSc1nnc(COc2ccc(Cl)cc2)n1-c1ccccc1 (stereo unspecified)
targetOfAssay: HOP-62
classAssignment: inactive
--
compound: CC(=O)Oc1c(-c2ccccc2)sc2ccccc12
targetOfAssay: HOP-62
classAssignment: inactive
--
compound: NC(=O)c1c2c(n3ccccc13)C(=O)c1ccccc1C2=O
targetOfAssay: HOP-62
classAssignment: inactive
--
compound: O=C(c1cc(Cl)cc(Cl)c1)N(C(=S)OC12CC3CC(CC(C3)C1)C2)c1ccccc1
targetOfAssay: HOP-62
classAssignment: inactive
--
compound: Cc1cc2c(C)n(Cc3ccc(Cl)cc3Cl)nc2c(C(=O)O)c1C
targetOfAssay: HOP-62
classAssignment: inactive
--
compound: COC(=O)C(CCSc1ccccc1)C(=O)OC
targetOfAssay: HOP-62
classAssignment: inactive
--
compound: CN(C)CCSc1cc(-c2ccccc2)c2ccccc2n1
targetOfAssay: HOP-62
classAssignment: inactive
--
compound: CCOP(=O)(OCC)C(Nc1ccc(F)cc1)c1cccc([N+](=O)[O-])c1 (stereo unspecified)
targetOfAssay: HOP-62
classAssignment: inactive
--
compound: CC1=NCC[N+]1(CCc1ccccc1)Cc1ccccc1 (stereo unspecified)
targetOfAssay: HOP-62
classAssignment: inactive
--
compound: O=C(O)c1nc2ccc(C(F)(F)F)cc2nc1NCc1ccc(Cl)c(Cl)c1
targetOfAssay: HOP-62
classAssignment: inactive
--
compound: OCC(O)COc1ccc(Br)cc1 (stereo unspecified)
targetOfAssay: HOP-62
classAssignment: inactive
--
compound: CS(=O)(=O)Nc1ccc2c(c1)N(S(C)(=O)=O)CC2CCl (stereo unspecified)
targetOfAssay: HOP-62
classAssignment: inactive
--
compound: O=N/N=c1\o[n-][n+](CCc2ccccc2)c1Cc1/c(=N/N=O)o[n-][n+]1CCc1ccccc1
targetOfAssay: HOP-62
classAssignment: inactive
--
compound: COc1ccc(CN(O)C2C(CO)OC(n3cc(I)c(=O)[nH]c3=O)C2O)cc1 (stereo unspecified)
targetOfAssay: HOP-62
classAssignment: inactive
--
compound: COc1cc2oc(-c3ccc(O)cc3)cc(=O)c2c(OC)c1OC
targetOfAssay: HOP-62
classAssignment: inactive
--
compound: COc1cc2c(c(OC)c1OC)-c1ccc(SC)c(=O)cc1[C@@H](NCc1cccc(C#N)c1)CC2
targetOfAssay: HOP-62
classAssignment: active
--
compound: CSC1=N/C(=C\c2ccccc2)C(=O)N1CN1CCOCC1
targetOfAssay: HOP-62
classAssignment: inactive
--
compound: COc1cc2c(c(OC)c1OC)C(=O)[C@H](Br)[C@H]2NC(=O)NCCCl
targetOfAssay: HOP-62
classAssignment: inactive
--
compound: COc1ccccc1/C=C1\Sc2scc(-c3cccc([N+](=O)[O-])c3)[n+]2C1=O
targetOfAssay: HOP-62
classAssignment: inactive
--
compound: c1cc(CSP234N5CCN2CCN3CCN4CC5)cc(CSP234N5CCN2CCN3CCN4CC5)c1
targetOfAssay: HOP-62
classAssignment: inactive
--
compound: COc1cc2c(cc1O)CC13CCC(=O)N1CCc1cc(OC)c(O)c-2c13 (stereo unspecified)
targetOfAssay: HOP-62
classAssignment: inactive
--
compound: c1ccc2c(c1)ccc1nc(-c3ccc4c(c3)OCO4)c3c(c12)CCCC3
targetOfAssay: HOP-62
classAssignment: inactive
--
compound: Nc1ccc2c(SCC(=O)Nc3ccccc3-c3ccccc3NC(=O)CSc3c4ccccc4nc4cc(N)ccc34)c3ccccc3nc2c1
targetOfAssay: HOP-62
classAssignment: inactive
--
compound: NC(Cc1ccc(S(=O)(=O)O)cc1)C(=O)NC(Cc1ccc(S(=O)(=O)O)cc1)C(=O)NC(Cc1ccc(S(=O)(=O)O)cc1)C(=O)NC(Cc1ccc(S(=O)(=O)O)cc1)C(=O)O (stereo unspecified)
targetOfAssay: HOP-62
classAssignment: inactive

---

- Test system: IGROV-1
- measurementDescription: NCI tumour cell line growth inhibition, 48 h
Activity calls are given as the source filed them. No stated cut-off is given here; in the data, active = GI50 up to about 1.1 µM and inactive = higher. *1 amine or outer side, *2 acyl side, *3 side chain or, on linkers, in order; H or OH if unused. Where a SMILES comes first, the peptide text is derived from it. Bridges are numbered along the chain shown (N, C = ends). [ ]: non-standard residue; d: D form. The star is where a group is joined. X36 = O=C(C(CCCCNO[*:3])N[*:1])[*:2]; Fmoc = O=C(OCC1c2ccccc2-c2ccccc21)*
Outcome codes: active, inactive

compound: OC(c1ccc(Br)cc1)(c1cccs1)C1CC1 (stereo unspecified)
classAssignment: inactive
--
compound: Clc1ccc2c(c1)C1C(CO2)C(c2ccccc2)=NN1c1ccccc1 (stereo unspecified)
classAssignment: inactive
--
compound: CC1=NCC[N+]1(CCc1ccccc1)Cc1ccccc1 (stereo unspecified)
classAssignment: inactive
--
compound: O=C1c2ccccc2-c2ccc(/N=[N+](/[O-])c3ccc4c(c3)C(=O)c3ccccc3-4)cc21
classAssignment: inactive
--
compound: C[C@]12CC=CC(=O)[C@@]1(C)CCC(=O)C2
classAssignment: inactive
--
compound: CCCCC(C(=O)C(=O)Nc1ccc(C)cc1C)C(=O)C(C)C (stereo unspecified)
classAssignment: inactive
--
compound: CCOC(=O)N1N(c2ccccc2)C(=O)C1(c1ccccc1)c1ccccc1
classAssignment: inactive
--
compound: Nc1nccc(NCC2(CO)CC(OCc3ccccc3)C2)n1 (stereo unspecified)
classAssignment: inactive
--
compound: CN(C)CC/C=C1\c2ccccc2Sc2ccc(Cl)cc21
classAssignment: inactive
--
compound: O=C(/C=C\c1cccc2ccccc12)c1ccc(Br)cc1
classAssignment: inactive
--
compound: O=C1CCC2(c3ccc(F)cc3)Nc3ccccc3N12 (stereo unspecified)
classAssignment: inactive
--
compound: Cc1cc2occ(C)c(=O)c2c2c1OC(C)(C)S2
classAssignment: inactive
--
compound: Cc1cccc(N2C(=O)C3c4[nH]c5ccccc5c4C4CCC(C(C)(C)C)CC4C3C2=O)c1C (stereo unspecified)
classAssignment: inactive
--
compound: Cc1cc2c(C)n(Cc3ccc(Cl)cc3Cl)nc2c(C(=O)O)c1C
classAssignment: inactive
--
compound: Cc1cccc(Nc2cc(Cl)nc(SCC(=O)O)n2)c1C [PIRINIXIC ACID]
classAssignment: inactive
--
compound: Cc1cc2cc3c(cc2c(-c2ccc([N+](=O)[O-])cc2)n1)OCO3
classAssignment: inactive
--
compound: NC(=O)CNC(=O)C1CCCN1C(=O)C1CCCCNOC(=O)CCC(NC(=O)OCC2c3ccccc3-c3ccccc32)C(=O)NC(Cc2c[nH]c3ccccc23)C(=O)N1 (stereo unspecified) (Fmoc-EW[X36]PG-NH2; ester 1-3; configuration not given here)
classAssignment: inactive
--
compound: O=C1c2cccc3cccc(c23)C(=O)N1CCCNCCCCNCCCN1C(=O)c2cccc3cccc(c23)C1=O
classAssignment: active
--
compound: O=c1nc(N2CCNCC2)oc2cc(Cl)oc(=O)c12
classAssignment: inactive
--
compound: CCOP(=O)(OCC)/C(=C\N1C(=O)CC(=O)NC1=S)C(=O)OC
classAssignment: inactive
--
compound: CCN(CC)CCC(=O)N1C/C(=C/c2ccccc2)C(=O)/C(=C\c2ccccc2)C1
classAssignment: inactive
--
compound: [N-]=[N+]=Nc1cccc(-c2nnc(Cl)cc2O)c1
classAssignment: inactive
--
compound: O=C1CSC(c2cccs2)N1c1nc2cc3sc(N4C(=O)CSC4c4cccs4)nc3cc2s1 (stereo unspecified)
classAssignment: inactive
--
compound: CCOC(=O)C1(C(=O)OCC)OC(C)=NC1(C(=O)OC)C(=O)OC
classAssignment: inactive
--
compound: CC1=NNC(=O)C1C1CC(c2c[nH]c3ccccc23)=NN=C1Cl (stereo unspecified)
classAssignment: inactive
--
compound: O=C(Nc1cccc(-c2cn3ccccc3n2)c1)c1ccncc1
classAssignment: inactive
--
compound: O=C1CCC(O)=C1O
classAssignment: inactive
--
compound: COc1cc2c(cc1OC)C1(c3ccccc3)ON=C(c3ccccc3)N1CS2 (stereo unspecified)
classAssignment: inactive
--
compound: O=C1C(Cl)N(c2ccc(Cl)cc2)C1c1c[nH]c2ccccc12 (stereo unspecified)
classAssignment: inactive
--
compound: CC(=O)NC1C(OC2C(CO)OC(OCC3OC(n4ccc(N)nc4=O)C(O)C3O)C(NC(C)=O)C2O)OC(CO)C(O)C1O (stereo unspecified)
classAssignment: inactive
--
compound: O=C(CO)CC(=O)C(=O)Nc1ccccc1
classAssignment: inactive
--
compound: Cc1oc2nc(N(C)C)n3nnnc3c2c1C
classAssignment: inactive
--
compound: Nc1ncnc2c1nnn2C1CCC(CP(=O)(O)O)C1 (stereo unspecified)
classAssignment: inactive
--
compound: O=C(O)c1nc2ccc(C(F)(F)F)cc2nc1Nc1ccc(Cl)c(Cl)c1
classAssignment: inactive
--
compound: NNC(=O)C1(NC(=O)c2ccccc2)C(c2ccccc2)C(c2ccccc2)=NN1c1ccccc1 (stereo unspecified)
classAssignment: inactive
--
compound: O=C(CCCn1ccnc1[N+](=O)[O-])NCCn1ccnc1[N+](=O)[O-]
classAssignment: inactive
--
compound: CC1(C)CC(=O)C2=C(C1)OC1(CC2c2ccc(Cl)cc2)CC(c2ccc(Cl)cc2)C2=C(CC(C)(C)CC2=O)O1 (stereo unspecified)
classAssignment: inactive
--
compound: C=C(C)C1CC2C(C)=C(OC(C)=O)C1n1c(=O)c3cc4ccccc4cc3c(=O)n12 (stereo unspecified)
classAssignment: inactive
--
compound: CCOC(=O)[C@H]1Nc2ccc([N+](=O)[O-])cc2C2c3ccccc3CC21 (stereo partly specified)
classAssignment: inactive
--
compound: Cc1ccc(S(=O)(=O)N2CC3OC(C)(C)OC3C2CO)cc1 (stereo unspecified)
classAssignment: inactive
--
compound: O=C1O[C@H]2[C@H](OC(=O)c3cc(O)c(O)c(O)c3)[C@@H](OC(=O)c3cc(O)c(O)c4c3[C@@H]3C1=CC(=O)C(O)(O)C3(O)O4)[C@H](OC(=O)c1cc(O)c(O)c(O)c1)O[C@@H]2COC(=O)c1cc(O)c(O)c(O)c1 (stereo partly specified) [TERCHEBIN]
classAssignment: inactive

The origin of these recorded values is ChEMBL document CHEMBL1201862.
